tested on: S. pneumoniae* GC 4465; assay: MIC, broth microdilution; settings: Streptococcus pneumoniae, read-out: MINIMAL INHIBITORY CONCENTRATION MIC, Mouse Serum
In this section, each of the compounds is paired with its reported MIC.
Give the number; µg/mL is assumed, so skip it.

Q: So what MIC did `CC(C)CC(=O)OCOC(=O)N(CC(=O)Nc1cc(N(C)C)c2c(c1O)C(=O)C1=C(O)[C@]3(O)C(=O)C(C(N)=O)=C(O)[C@@H](N(C)C)[C@@H]3C[C@@H]1C2)C(C)(C)C` get with S. pneumoniae* GC 4465?
Result: 0.12

Let's switch to this compound now.
Q: Which measured MIC belongs to `CCCCCCC(=O)OCOC(=O)N(CC(=O)Nc1cc(N(C)C)c2c(c1O)C(=O)C1=C(O)[C@]3(O)C(=O)C(C(N)=O)=C(O)[C@@H](N(C)C)[C@@H]3C[C@@H]1C2)C(C)(C)C` , tested on S. pneumoniae* GC 4465?
Result: 0.12
